B1: POU domain, class 2, transcription factor 1, residues 285 to 354; numbered along this chain, P14859 (parent)
chain: LEELEQFAKTFKQRRIKLGFTQGDVGLAMGKLYGNDFSQTTISRFEALNLSFKNMCKLKPLLEKWLNDAE

Variants of: B1
assayExplanation: abundance fitness (aPCA) (normalised: wild type 0, dead -1); higher = more abundant; growth selection in yeast, the domain comes from the species named
conditions: Homo sapiens
# abundance fitness >= -0.1 gives Fulfilled, anything below gives Not fulfilled

G34I	Not fulfilled

## Task Threshold query (abundance fitness >= -0.1) on F37V
## Result Fulfilled

## Task Hello, I need to know if Y33L has measured abundance fitness not below -0.1. Thanks!
## Result Fulfilled

Every entry's value here was drawn from the Human Domainome abundance scans (Beltran et al. 2025).
